biological target: MaxL homodimer (Homo sapiens, UniProt P61244 1-160); assay: universal protein-binding microarray (PBM); PBS-based mixture, 10 nM His-tagged protein dimer, 2% milk, 200 ng/uL BSA, 50 ng/uL salmon testes DNA, 0.02% TX-100; detection with Alexa 488 anti-His antibody;; high values mean tight binding; details: protein: recombinant; tags: C-terminal His-tag (pET21a); chain copies: 2; dsDNA, one strand shown;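 also: fluorescence intensity normalized to that of the highest-ranked 8-mer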
Sequence (P61244 whole entry): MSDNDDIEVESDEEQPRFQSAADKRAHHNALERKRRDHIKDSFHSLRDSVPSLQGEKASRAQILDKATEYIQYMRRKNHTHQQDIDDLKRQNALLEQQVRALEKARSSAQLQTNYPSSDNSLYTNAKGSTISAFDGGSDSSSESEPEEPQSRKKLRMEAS
In all, about 33,000 sequences were measured (“normalized occupancy”: median about 0.075, highest 2% from about 0.095 on). Shown is part of a subset that was picked to be rich in the highest values.
Can you tell me binding signal for the items I'm about to list?
Your answer is read as normalized occupancy, so omit the unit and give the number.

Record CGAAATAC : what is its binding signal with MaxL homodimer (Homo sapiens, UniProt P61244 1-160)?
0.0768

Now the same for GCGTGGAC
0.0976

Now the same for CTCAACAA
0.0728

Now the same for CCACGGAC
0.0742

Now the same for CCATGCGA
0.1

Now the same for AGGTGGAA
0.0722

Now the same for CCATGCGG
0.145

Now the same for AAGAGCAC
0.0774

Now the same for CTCGTGAA
0.0894

Now the same for AACGCTAC
0.0825

Now the same for AAGCAACG
0.0753

Now the same for ACCGCTAC
0.0748

Now the same for GGGTGGAC
0.0796

Now the same for AGTGCATG
0.0988

Now the same for CATGCTTA
0.104

Now the same for CACGACAC
0.0789

Now the same for AACGCATG
0.121

Now the same for AATGCATT
0.0797

// data source = paper PMC4242493
